Where do these numbers come from? They come from patent US7491707B1.

Would you kindly list T-cell-Proliferation (CPM) for each of these compounds?
# System: T-cell
# TEST_SUMMARY: T-cell proliferation (3H thymidine incorporation) of lymph node lymphocytes from mice immunized with MUC1-based liposomal vaccine adjuvanted with Lipid-A analog
# Type: in vivo, C57-Black mice
# STATED_CONDITIONS: Table 3, third test group; s.c. liposomal vaccine 40 μg BP1-148 + 20 μg Lipid-A analog per dose; nine days after injection; boosting antigen BP1-151
Reply numerically in CPM, unit not repeated.

Inquiry: # return T-cell-Proliferation (CPM) of CCCCCCCCCCCCO[C@H](CCCCCCCCCCC)CC(=O)N[C@H]1[C@H](OC[C@H]2OC(O)[C@H](NC(=O)C[C@@H](CCCCCCCCCCC)OCCCCCCCCCCCC)[C@@H](OC(=O)C[C@H](O)CCCCCCCCCCC)[C@@H]2O)O[C@H](CO)[C@@H](OP(=O)(O)O)[C@@H]1OC(=O)C[C@@H](CCCCCCCCCCC)OCCCCCCCCCCCC (stereo partly shown) [Compound 94] (system: T-cell)
Reply text: 10882

Inquiry: Recall the reported T-cell-Proliferation (CPM) of CCCCCCCCCCCCCC(=O)O[C@H](CCCCCCCCCCC)CC(=O)N[C@H]1[C@H](OC[C@H]2OC(O)[C@H](NC(=O)C[C@@H](CCCCCCCCCCC)OC(=O)CCCCCCCCCCCCC)[C@@H](OC(=O)C[C@H](O)CCCCCCCCCCC)[C@@H]2O)O[C@H](CO)[C@@H](OP(=O)(O)O)[C@@H]1OC(=O)C[C@@H](CCCCCCCCCCC)OC(=O)CCCCCCCCCCCCC (stereo partly shown) [Compound 86] on T-cell and write it down.
Reply text: 15486

Inquiry: State, for T-cell, measured T-cell-Proliferation (CPM) of the compound listed here: CCCCCCCCCCCCO[C@H](CCCCCCCCCCC)CC(=O)O[C@H](CCCCCCCCCCC)CC(=O)N[C@H]1C(O)O[C@H](CO[C@@H]2O[C@H](CO)[C@@H](OP(=O)(O)O)[C@H](OC(=O)C[C@@H](CCCCCCCCCCC)OCCCCCCCCCCCC)[C@H]2NC(=O)C[C@H](O)CCCCCCCCCCC)[C@@H](O)[C@@H]1O (stereo partly shown) [Compound 104]
Reply text: 12635

Inquiry: Give reported T-cell-Proliferation (CPM) for CCCCCCCCCCCCO[C@H](CCCCCCCCCCC)CC(=O)N[C@H]1[C@H](OC[C@H]2OC(O)[C@H](NC(=O)C[C@@H](CCCCCCCCCCC)OC(=O)C[C@@H](CCCCCCCCCCC)OCCCCCCCCCCCC)[C@@H](O)[C@@H]2O)O[C@H](CO)[C@@H](OP(=O)(O)O)[C@@H]1OC(=O)C[C@@H](CCCCCCCCCCC)OCCCCCCCCCCCC (stereo partly shown) [Compound 102] (T-cell)
Reply text: 13389

* * *

# System: Interferon-gamma (IFN-γ)
# TEST_SUMMARY: Interferon-gamma (IFN-γ) production in cell culture supernatants by ELISA, lymphocytes of mice immunized with adjuvanted MUC1 liposomal vaccine
# Format: in vivo, C57-Black mice
# STATED_CONDITIONS: Table 3, third test group; s.c. liposomal vaccine 40 μg BP1-148 + 20 μg Lipid-A analog per dose; nine days after injection
# Description: Typically, the liposomal formulation was composed of 400 μg of MUC1-based lipopeptide BP1-148, H2N-[…](Pal)G-OH, 200 μg of Lipid-A analog, 6.94 mg of cholesterol, 1.46 mg of dimyristoyl phosphatidylglycerol ([…]) and 11.62 mg of dipalmitoyl phosphatidylcholine (DPPC) per 1 ml of saline (0.9% NaCl solution). […] Interferon-gamma (IFN-γ) levels were determined in the cell culture supernatants using enzyme-linked immunoabsorbent assay (ELISA). […]
RESULT_TYPE: Interferon-gamma (IFN-γ, pg/ml)
The number alone won't do; follow it with the unit.

Inquiry: Give the reported value of Interferon-gamma (IFN-γ, pg/ml) for this record: CCCCCCCCCCCCO[C@H](CCCCCCCCCCC)CC(=O)N[C@H]1[C@H](OC[C@H]2OC(O)[C@H](NC(=O)C[C@@H](CCCCCCCCCCC)OCCCCCCCCCCCC)[C@@H](OC(=O)C[C@H](O)CCCCCCCCCCC)[C@@H]2O)O[C@H](CO)[C@@H](OP(=O)(O)O)[C@@H]1OC(=O)C[C@@H](CCCCCCCCCCC)OCCCCCCCCCCCC (stereo partly shown)
Reply text: 2150 pg/mL

* * *

# Test system: Interferon-gamma (IFN-γ)
# TEST_SUMMARY: Interferon-gamma (IFN-γ) production in cell culture supernatants by ELISA, lymphocytes of mice immunized with adjuvanted MUC1 liposomal vaccine
# Format: in vivo, C57-Black mice
# STATED_CONDITIONS: in words; liposomal vaccine formulations in mice, FIG. 31-FIG. 33
RESULT_TYPE: interferon-gamma production

COMPOUND	MEASUREMENT_TARGET	RESULT_TYPE	RECORDED_VALUE
CCCCCCCCCCCCCC(=O)N[C@@H](CC(=O)N[C@H]1[C@H](OC[C@H]2OC(O)[C@H](NC(=O)C[C@@H](CCCCCCCCCCC)OC(=O)CCCCCCCCCCCCC)[C@@H](OC(=O)C[C@H](O)CCCCCCCCCCC)[C@@H]2O)O[C@H](CO)[C@@H](OP(=O)(O)O)[C@@H]1OC(=O)C[C@@H](CCCCCCCCCCC)OC(=O)CCCCCCCCCCCCC)C(=O)NCCCCCCCCC (stereo partly drawn) [Compound 77]	Interferon-gamma (IFN-γ)	interferon-gamma production	inactive
CCCCCCCCCCCCCC(=O)N[C@@H](CC(=O)N[C@H]1[C@H](OC[C@H]2OC(O)[C@H](NC(=O)C[C@@H](CCCCCCCCCCC)OC(=O)CCCCCCCCCCCCC)[C@@H](O)[C@@H]2O)O[C@H](CO)[C@@H](OP(=O)(O)O)[C@@H]1OC(=O)C[C@@H](CCCCCCCCCCC)OC(=O)CCCCCCCCCCCCC)C(=O)NCCCCCCCCC (stereo partly drawn) [Compound 58]	Interferon-gamma (IFN-γ)	interferon-gamma production	inactive
